# Test method notes: self-splicing fitness, log relative to wild type (ln ratio); higher = more splicing; Tetrahymena group I intron in knt gene, E. coli kanamycin selection, DiMSum; sequences stand for … in CUCUCU…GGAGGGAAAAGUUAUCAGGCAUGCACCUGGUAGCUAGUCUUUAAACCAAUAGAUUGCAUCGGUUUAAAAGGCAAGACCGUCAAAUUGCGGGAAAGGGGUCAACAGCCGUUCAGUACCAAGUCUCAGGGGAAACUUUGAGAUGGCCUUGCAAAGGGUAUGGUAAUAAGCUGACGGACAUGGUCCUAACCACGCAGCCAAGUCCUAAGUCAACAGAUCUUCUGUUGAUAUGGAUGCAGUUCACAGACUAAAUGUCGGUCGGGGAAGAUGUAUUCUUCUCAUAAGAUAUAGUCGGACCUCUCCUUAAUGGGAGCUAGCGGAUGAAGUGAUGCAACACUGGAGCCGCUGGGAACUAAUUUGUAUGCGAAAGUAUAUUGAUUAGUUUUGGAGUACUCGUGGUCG;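 further: selection with 25 µg/mL kanamycin versus none on LB agar overnight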
# Measurement parameters: 37 °C
Assay metric: self-splicing fitness (ln)
Keep it simple and answer with nothing but the number.

Some solved cases for reference:
Record sequence	self-splicing fitness (ln)
AGAAAGCAAUAUUACGAAGA	-2.27
UGCAAGCAAUAUUACGGUAA	-0.838
CACAAGCAAUAUUACGGGGC	-2.54

q: For the sequence `CUACAGCAAUAUUACGCAGC` , what self-splicing fitness (ln) is on record?
a: -1.75

q: Would you mind telling me what self-splicing fitness (ln) value was observed for `ACCAAGCAAUAUUACGAAUC` ?
a: -1.4

q: Item `UGUUAGCAAUAUUACGUUCG` has what recorded self-splicing fitness (ln)?
a: 0.292

q: Requested read-out: self-splicing fitness (ln). Entry: `GCCGAGCAAUAUUACGGUGA`
a: -0.176

q: Give its self-splicing fitness (ln) value. Item: `UCUAAGCAAUAUUACGCUCG`
a: -1.36

q: State the recorded self-splicing fitness (ln) for this entry: `AAGCAGCAAUAUUACGCGGC`
a: -2.4

q: Which value of self-splicing fitness (ln) has been reported for `UGUCAGCAAUAUUACGCGCA` in the records?
a: -0.608

q: # get_value(readout='self-splicing fitness (ln)', item= `GCUCAGCAAUAUUACGAUCA` )
a: -0.164

q: May I ask what self-splicing fitness (ln) has been recorded for `AACAAGCAAUAUUACGUACU` ?
a: 0.496

* * *

# Test method notes: self-splicing fitness, log relative to wild type (ln ratio); higher = more splicing; Tetrahymena group I intron in knt gene, E. coli kanamycin selection, DiMSum; sequences stand for … in CUCUCU…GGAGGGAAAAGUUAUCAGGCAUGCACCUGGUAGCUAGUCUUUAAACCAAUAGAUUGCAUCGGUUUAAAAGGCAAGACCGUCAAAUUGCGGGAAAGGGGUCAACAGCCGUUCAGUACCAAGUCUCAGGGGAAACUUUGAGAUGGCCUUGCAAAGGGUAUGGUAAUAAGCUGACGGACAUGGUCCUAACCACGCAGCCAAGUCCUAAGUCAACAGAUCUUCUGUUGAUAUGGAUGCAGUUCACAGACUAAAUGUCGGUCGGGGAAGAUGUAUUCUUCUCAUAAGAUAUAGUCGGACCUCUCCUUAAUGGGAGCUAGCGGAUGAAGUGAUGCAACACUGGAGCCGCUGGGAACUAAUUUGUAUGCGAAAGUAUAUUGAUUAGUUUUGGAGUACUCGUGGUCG
# Measurement parameters: 37 °C
Assay metric: self-splicing fitness (ln)
Kindly provide the number alone.

Below are worked cases with known answers.
Record sequence	self-splicing fitness (ln)
GGGCAGCAAUAUUACGUAAU	0.209
UAAUAGCAAUAUUACGGACA	-0.393
UACAAGCAAUAUUACGGCUC	-0.468
AUGUAGCAAUAUUACGGUGU	-0.843
CCGGAGCAAUAUUACGCUGA	-1.75

q: I'd like to know its self-splicing fitness (ln). The sequence in question is `GGGAAGCAAUAUUACGUUAG`
a: -0.794

q: Returns the measured self-splicing fitness (ln) for the input sequence. Input: `AUUUAGCAAUAUUACGUCCG`
a: -0.728

q: May I ask what self-splicing fitness (ln) has been recorded for `CCAAAGCAAUAUUACGGCGU` ?
a: -2.62
